# target.under.test: MATE1 (Homo sapiens, UniProt Q96FL8)
# Sequence (Q96FL8 whole entry): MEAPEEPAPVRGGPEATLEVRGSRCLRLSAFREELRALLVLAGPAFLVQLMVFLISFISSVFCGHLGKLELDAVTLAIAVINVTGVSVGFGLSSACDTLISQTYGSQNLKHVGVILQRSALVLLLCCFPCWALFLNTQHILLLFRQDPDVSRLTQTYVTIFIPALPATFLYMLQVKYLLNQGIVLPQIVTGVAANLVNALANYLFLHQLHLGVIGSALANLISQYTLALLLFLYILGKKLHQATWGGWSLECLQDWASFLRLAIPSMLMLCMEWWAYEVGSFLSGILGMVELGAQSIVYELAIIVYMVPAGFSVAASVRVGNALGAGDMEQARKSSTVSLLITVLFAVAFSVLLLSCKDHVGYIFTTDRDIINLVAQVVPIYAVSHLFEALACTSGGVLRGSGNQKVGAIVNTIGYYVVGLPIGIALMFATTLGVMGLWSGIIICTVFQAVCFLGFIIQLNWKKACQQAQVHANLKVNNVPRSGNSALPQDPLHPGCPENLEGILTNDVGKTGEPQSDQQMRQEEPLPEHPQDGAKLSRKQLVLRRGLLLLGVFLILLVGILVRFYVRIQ
# particulars: human, pH 8.5
pIC50: −log10 of the molar value.
metric.name: pIC50

Item: NS(=O)(=O)c1cc(Cl)c(Cl)c(S(N)(=O)=O)c1 [Dichlorphenamide, 4,5-dichloro-1,3-benzenedisulfonamide] | pIC50: < 3.00

---

# target.under.test: BCRP (Homo sapiens, UniProt Q9UNQ0)
# Sequence (Q9UNQ0 whole entry): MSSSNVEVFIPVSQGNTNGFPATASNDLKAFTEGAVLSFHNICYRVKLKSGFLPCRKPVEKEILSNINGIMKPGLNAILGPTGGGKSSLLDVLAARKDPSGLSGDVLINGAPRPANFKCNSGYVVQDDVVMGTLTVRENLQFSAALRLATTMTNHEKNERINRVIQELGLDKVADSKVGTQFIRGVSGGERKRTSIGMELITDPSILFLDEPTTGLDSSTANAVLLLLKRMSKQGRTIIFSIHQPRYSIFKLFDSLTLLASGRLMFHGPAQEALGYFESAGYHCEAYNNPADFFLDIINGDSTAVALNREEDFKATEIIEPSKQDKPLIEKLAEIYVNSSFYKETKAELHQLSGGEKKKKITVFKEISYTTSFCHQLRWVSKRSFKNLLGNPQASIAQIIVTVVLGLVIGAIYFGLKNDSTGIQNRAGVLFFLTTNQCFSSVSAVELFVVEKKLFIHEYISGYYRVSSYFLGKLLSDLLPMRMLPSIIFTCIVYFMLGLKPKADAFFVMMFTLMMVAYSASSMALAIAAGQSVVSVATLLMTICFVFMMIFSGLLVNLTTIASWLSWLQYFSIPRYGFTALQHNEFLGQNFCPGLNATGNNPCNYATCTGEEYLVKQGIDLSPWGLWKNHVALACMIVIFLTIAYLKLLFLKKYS
# assay.explanation: BCRP inhibition: bidirectional transport of prazosin across MDCKII-BCRP and control MDCKII cells
pIC50: −log10 of the molar value.
metric.name: pIC50

Item: NS(=O)(=O)c1cc(Cl)c(Cl)c(S(N)(=O)=O)c1 [Dichlorphenamide, 4,5-dichloro-1,3-benzenedisulfonamide] | pIC50: < 3.00
